# Test system: T-47D breast
# ASSAY OVERVIEW: NCI-60 one-dose screen, 48 h (100 = growth as untreated, 0 = no growth, -100 = all killed)
# TEST CONDITIONS: 10 µM unless noted
The panel holds about 83,000 compounds, 20% with a hit somewhere; the sample as a whole holds those more often.
Recorded growth by entry

{"columns": ["COMPOUND", "growth (%)"],
 "data": [
  ["CC1(C)N=C(N)N=C(N)N1c1cccc(CN)c1", 102],
  ["CCOC(=O)C1C(=O)C=C(c2cnccn2)CC1c1ccc(OC)c(OC)c1 (stereo not drawn)", 83.5],
  ["Cc1ccc(-n2nnc(C3=NCCc4c3[nH]c3ccc(Cl)cc43)c2C)cc1", 35.7]
]}

====

# Test system: LOX IMVI melanoma
# ASSAY OVERVIEW: NCI-60 one-dose screen, 48 h (100 = growth as untreated, 0 = no growth, -100 = all killed)
# TEST CONDITIONS: 10 µM unless noted
About 83,000 compounds went through this panel and 20% of them were active in at least one assay; those are over-represented in the sample as a whole.

{"columns": ["COMPOUND", "UNITS OF MEASURE", "growth"],
 "data": [
  ["CCOC(=O)Cc1csc2nc(-c3ccccc3)nn12", "%", 89],
  ["O=C1C2=C(CCN(Cc3ccccc3)C2)N2CCN=C2N1Cc1ccc(C(F)(F)F)cc1", "%", 29.2],
  ["CC(C)(C)N1CC(OC(N)=O)C1", "%", 96.3],
  ["CCOC(=O)c1sc(-c2ccc(OS(=O)(=O)c3ccc(C(C)(C)C)cc3)c(C=O)c2)nc1C", "%", 43.3],
  ["COc1cc(C(=O)/C=C/c2c(C(F)(F)F)nc3ccccn23)cc(OC)c1OC", "%", -79.8],
  ["CCNCCNc1cc(-c2ccc(C#N)cc2)c(C#N)c2nc3ccccc3n12", "%", -53.9],
  ["Cc1nc(Nc2ccc(NC(=S)Nc3ccccc3)cc2)nc2nc(Nc3cccc(Cl)c3)[nH]c(=O)c12", "%", 92],
  ["O=C1CC(c2ccc3c(c2)OCO3)Nc2cc3c(cc21)OCO3 (stereo unspecified)", "%", 25.3],
  ["CNC(=O)c1cc(Oc2ccc3nc(NC(=O)Nc4cc(C(F)(F)F)cc(C(F)(F)F)c4)sc3c2)ccn1", "%", -87.5],
  ["COc1ccc(C(=O)/C=C/c2cc3c(c(OC)c2)OCC(=O)N3)cc1", "%", 40.1],
  ["O=C(NCCOCCOCCNc1cccc2c1C(=O)N(C1CCCNC1=O)C2=O)c1cc2c(o1)C(=O)c1ccccc1C2=O (stereo unspecified)", "%", -59]
]}

====

# System: MDA-MB-435 melanoma
# ASSAY OVERVIEW: NCI-60 one-dose screen, 48 h (100 = growth as untreated, 0 = no growth, -100 = all killed)
# TEST CONDITIONS: 10 µM unless noted
The panel holds about 83,000 compounds, 20% with a hit somewhere; the sample as a whole holds those more often.
VALUE KIND: growth (%)

{"columns": ["MOLECULE", "VAL"],
 "data": [
  ["CNC=O", 96.9],
  ["CC(=O)Nc1cccc(C2=CC(c3ccc(C)cc3)n3ncnc3N2)c1 (stereo not given)", 112],
  ["COc1ccc(NC(=O)C(=O)c2c[nH]c3ccc(F)cc23)cc1", 95.5],
  ["C=C1C(=O)O[C@H]2[C@H]1CC/C(COC(=O)/C=C\\C(=O)NCc1ccc(Cn3c(=O)sn(-c4ccc(C#N)cc4)c3=O)cc1)=C\\CC[C@@]1(C)O[C@@H]21", -79.6],
  ["C#C[C@]1(O)CC[C@H]2[C@@H]3CC=C4c5sc(N=C(N)N)nc5CC[C@]4(C)[C@H]3CC[C@@]21C", -55.9]
]}
